Reference source for all entries: PubChem BioAssay AID651804

TARGET_SYSTEM: Transcriptional regulator ERG (Homo sapiens) (UniProt P11308)
Sequence (P11308 whole entry, looked up): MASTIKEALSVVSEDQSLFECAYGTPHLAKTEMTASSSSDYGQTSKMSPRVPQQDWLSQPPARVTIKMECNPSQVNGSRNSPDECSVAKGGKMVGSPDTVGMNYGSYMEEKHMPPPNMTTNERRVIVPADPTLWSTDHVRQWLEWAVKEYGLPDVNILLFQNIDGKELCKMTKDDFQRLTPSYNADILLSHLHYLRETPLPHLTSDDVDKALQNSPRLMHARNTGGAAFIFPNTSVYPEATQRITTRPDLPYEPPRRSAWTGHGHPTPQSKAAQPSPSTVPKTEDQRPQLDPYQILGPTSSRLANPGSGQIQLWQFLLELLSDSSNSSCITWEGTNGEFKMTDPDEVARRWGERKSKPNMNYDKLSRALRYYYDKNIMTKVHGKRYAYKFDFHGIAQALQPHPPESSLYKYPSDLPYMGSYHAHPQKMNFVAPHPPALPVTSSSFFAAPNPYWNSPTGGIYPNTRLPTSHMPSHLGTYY
METHOD_DESCRIPTION: qHTS for Small Molecule Inhibitors of the ERG Ets/DNA interaction: HTRF assay against cherry picks
ASSAY_CONTEXT: His-ERG Ets domain with biotin-DNA; series mostly up to 154 µM
Out of some 1,200 compounds screened, about 20 (2%) were called active. Another 23% or so got no clear call; they are omitted. Shown is part of a subset that was picked to be rich in actives.
VALUE_KIND: outcome

Consider the worked cases shown below.
COMPOUND: COc1ccc(C(=O)NCc2ccc(OCCN(C)C)cc2)cc1OC
outcome: inactive

COMPOUND: Cc1cccc(C(=O)N[C@H](C(=O)Nc2ccc(C)c(S(=O)(=O)N(C)C)c2)C(C)C)c1
outcome: inactive

COMPOUND: S=C(NCc1ccco1)N1CCN(c2ccccn2)CC1
outcome: inactive

COMPOUND: O=C(COC(=O)c1cccc(-n2cnnn2)c1)c1ccccc1
outcome: inactive

Report outcome under test system Transcriptional regulator ERG (Homo sapiens) (UniProt P11308) for COc1ccc(OCCCC(=O)Nc2cccc(C(C)=O)c2)cc1 .
inactive

Report outcome under test system Transcriptional regulator ERG (Homo sapiens) (UniProt P11308) for CCCCn1c(N)c(N(CC(C)C)C(=O)c2ccc(S(=O)(=O)N3CCC(C)CC3)cc2)c(=O)[nH]c1=O .
inactive

Report outcome under test system Transcriptional regulator ERG (Homo sapiens) (UniProt P11308) for O=C(NCc1cccnc1)c1ccccc1-c1nc(-c2ccccc2)no1 .
inactive

Report outcome under test system Transcriptional regulator ERG (Homo sapiens) (UniProt P11308) for Cc1cccc(NC2(C(=O)O)CCCC2)c1 .
inactive
